# Tested Target: DDB1-CDK12/Cyclin K ternary complex (Homo sapiens, UniProt Q16531+Q9NYV4)
# Construct: expressed in transfected cells; host or cells: HEK293T wildtype cells, transient PEI transfection
# Sequence (Q9NYV4 whole entry): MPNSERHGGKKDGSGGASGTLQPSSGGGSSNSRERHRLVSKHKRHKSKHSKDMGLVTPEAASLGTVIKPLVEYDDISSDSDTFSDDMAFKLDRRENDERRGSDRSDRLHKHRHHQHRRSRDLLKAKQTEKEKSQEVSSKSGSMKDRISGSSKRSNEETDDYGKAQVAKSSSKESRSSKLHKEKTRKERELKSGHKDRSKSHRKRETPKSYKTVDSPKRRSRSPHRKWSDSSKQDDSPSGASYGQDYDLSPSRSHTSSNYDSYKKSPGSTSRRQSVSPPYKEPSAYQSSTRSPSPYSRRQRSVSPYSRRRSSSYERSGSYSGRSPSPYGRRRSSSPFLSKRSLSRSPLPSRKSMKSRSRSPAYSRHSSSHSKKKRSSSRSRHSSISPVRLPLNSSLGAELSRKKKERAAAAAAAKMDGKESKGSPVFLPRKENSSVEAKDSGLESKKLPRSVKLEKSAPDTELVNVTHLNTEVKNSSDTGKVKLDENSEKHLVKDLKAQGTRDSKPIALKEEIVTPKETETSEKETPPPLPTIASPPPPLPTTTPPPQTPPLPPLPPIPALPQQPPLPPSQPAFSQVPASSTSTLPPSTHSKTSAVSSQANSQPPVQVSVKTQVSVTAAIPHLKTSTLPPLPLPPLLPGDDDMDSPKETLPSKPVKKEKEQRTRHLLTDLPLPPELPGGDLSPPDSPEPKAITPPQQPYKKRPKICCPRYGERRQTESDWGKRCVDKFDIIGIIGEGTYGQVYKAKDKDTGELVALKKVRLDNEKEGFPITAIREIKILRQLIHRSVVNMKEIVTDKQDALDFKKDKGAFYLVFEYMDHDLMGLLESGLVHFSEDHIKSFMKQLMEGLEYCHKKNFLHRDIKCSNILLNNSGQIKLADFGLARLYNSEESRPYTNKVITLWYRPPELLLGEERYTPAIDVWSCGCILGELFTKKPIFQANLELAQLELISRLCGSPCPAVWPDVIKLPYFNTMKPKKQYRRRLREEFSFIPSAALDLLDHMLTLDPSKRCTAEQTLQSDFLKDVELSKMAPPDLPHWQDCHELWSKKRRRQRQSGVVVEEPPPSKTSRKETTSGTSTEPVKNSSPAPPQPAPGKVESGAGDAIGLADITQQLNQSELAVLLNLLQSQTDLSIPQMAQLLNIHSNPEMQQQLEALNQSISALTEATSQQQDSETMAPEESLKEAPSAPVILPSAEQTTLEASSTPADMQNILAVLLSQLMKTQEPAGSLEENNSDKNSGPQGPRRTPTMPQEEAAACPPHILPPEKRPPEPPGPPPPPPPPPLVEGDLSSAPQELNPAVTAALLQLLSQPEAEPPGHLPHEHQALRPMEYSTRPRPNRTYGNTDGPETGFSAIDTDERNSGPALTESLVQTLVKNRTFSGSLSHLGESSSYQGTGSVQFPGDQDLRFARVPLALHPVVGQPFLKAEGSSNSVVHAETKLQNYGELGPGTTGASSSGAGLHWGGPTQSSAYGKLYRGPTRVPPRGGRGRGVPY
# Sequence (Q16531 whole entry): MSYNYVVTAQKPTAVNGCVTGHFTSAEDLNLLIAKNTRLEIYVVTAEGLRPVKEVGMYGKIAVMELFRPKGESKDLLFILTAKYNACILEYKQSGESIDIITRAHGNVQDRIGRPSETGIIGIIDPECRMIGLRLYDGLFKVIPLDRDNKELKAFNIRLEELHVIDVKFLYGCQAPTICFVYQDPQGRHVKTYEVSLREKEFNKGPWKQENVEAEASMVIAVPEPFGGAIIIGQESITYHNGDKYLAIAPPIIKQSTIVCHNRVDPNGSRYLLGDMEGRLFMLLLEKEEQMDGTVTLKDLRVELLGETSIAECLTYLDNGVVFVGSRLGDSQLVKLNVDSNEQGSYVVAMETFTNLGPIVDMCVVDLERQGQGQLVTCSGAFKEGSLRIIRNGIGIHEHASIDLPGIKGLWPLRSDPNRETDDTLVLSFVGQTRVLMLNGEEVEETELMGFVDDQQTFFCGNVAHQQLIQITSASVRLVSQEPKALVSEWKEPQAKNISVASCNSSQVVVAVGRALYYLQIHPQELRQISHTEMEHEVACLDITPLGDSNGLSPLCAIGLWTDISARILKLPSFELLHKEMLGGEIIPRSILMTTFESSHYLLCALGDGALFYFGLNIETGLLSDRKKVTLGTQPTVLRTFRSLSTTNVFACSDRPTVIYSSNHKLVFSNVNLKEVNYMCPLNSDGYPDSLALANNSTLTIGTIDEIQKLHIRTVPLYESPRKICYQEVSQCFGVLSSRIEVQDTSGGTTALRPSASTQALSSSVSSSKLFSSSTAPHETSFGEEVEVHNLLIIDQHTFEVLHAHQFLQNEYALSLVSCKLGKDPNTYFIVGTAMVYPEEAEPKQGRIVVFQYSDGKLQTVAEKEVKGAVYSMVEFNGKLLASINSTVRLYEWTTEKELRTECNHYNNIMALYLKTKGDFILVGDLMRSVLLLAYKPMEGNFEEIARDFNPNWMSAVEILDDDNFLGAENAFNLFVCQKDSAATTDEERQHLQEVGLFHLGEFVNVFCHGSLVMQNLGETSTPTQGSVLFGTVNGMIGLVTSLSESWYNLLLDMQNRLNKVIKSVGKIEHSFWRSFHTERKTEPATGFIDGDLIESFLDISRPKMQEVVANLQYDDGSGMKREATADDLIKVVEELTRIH
# Sequence (O75909 whole entry partner): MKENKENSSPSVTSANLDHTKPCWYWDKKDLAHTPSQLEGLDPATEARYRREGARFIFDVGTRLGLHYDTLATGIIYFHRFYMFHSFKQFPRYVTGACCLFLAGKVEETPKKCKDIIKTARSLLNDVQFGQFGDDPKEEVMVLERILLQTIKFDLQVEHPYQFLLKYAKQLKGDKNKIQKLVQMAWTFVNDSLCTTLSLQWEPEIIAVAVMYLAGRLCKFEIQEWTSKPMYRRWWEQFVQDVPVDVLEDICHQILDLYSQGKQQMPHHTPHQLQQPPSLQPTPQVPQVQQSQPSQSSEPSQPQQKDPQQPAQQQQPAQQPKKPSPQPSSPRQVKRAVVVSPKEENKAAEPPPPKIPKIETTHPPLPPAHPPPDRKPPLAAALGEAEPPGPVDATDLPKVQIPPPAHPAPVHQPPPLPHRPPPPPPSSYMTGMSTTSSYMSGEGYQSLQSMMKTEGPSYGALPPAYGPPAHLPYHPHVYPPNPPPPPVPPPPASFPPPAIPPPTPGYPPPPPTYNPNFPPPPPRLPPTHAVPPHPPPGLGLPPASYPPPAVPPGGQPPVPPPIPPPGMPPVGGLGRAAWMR
# Assay Summary: NanoBRET fold-change assay (HaloTag_CDK12 / NanoLuc_DDB1 in HEK293T)
# Type: cell-based
# Test Context: 10 μM compound, 10 minutes
Assay Metric: NanoBRET fold-change Activity Class

[
  {
    "Compound": "Cc1ccc2c(CC(=O)Nc3cc(C(F)(F)F)[nH]n3)coc2c1C [Example 3-48]",
    "Tested Target": "DDB1-CDK12/Cyclin K ternary complex (Homo sapiens, UniProt Q16531+Q9NYV4)",
    "Assay Metric": "NanoBRET fold-change Activity Class",
    "Observed Result": "B (3-4 fold increase)"
  },
  {
    "Compound": "O=C(Cc1cnc2ccccc2c1)Nc1ncc(C(F)(F)F)s1 [Example 3-36]",
    "Tested Target": "DDB1-CDK12/Cyclin K ternary complex (Homo sapiens, UniProt Q16531+Q9NYV4)",
    "Assay Metric": "NanoBRET fold-change Activity Class",
    "Observed Result": "C (2-3 fold increase)"
  },
  {
    "Compound": "Cc1cc(NC(=O)Cc2cn3cc(F)ccc3n2)n[nH]1 [Example 3-56]",
    "Tested Target": "DDB1-CDK12/Cyclin K ternary complex (Homo sapiens, UniProt Q16531+Q9NYV4)",
    "Assay Metric": "NanoBRET fold-change Activity Class",
    "Observed Result": "C (2-3 fold increase)"
  },
  {
    "Compound": "Cc1ccc2c(CC(=O)Nc3ccc(Br)cn3)coc2c1C [Example 3-53]",
    "Tested Target": "DDB1-CDK12/Cyclin K ternary complex (Homo sapiens, UniProt Q16531+Q9NYV4)",
    "Assay Metric": "NanoBRET fold-change Activity Class",
    "Observed Result": "B (3-4 fold increase)"
  }
]

# next compound below
Indicate the recorded NanoBRET fold-change Activity Class value for this compound: O=C(Cc1cc2ccccc2s1)Nc1ncc(C(F)(F)F)s1 [Example 3-10]
C (2-3 fold increase)

* * *

# Tested Target: DDB1-CDK12/Cyclin K ternary complex (Homo sapiens, UniProt Q16531+Q9NYV4)
# Construct: expressed in transfected cells; host or cells: HEK293T wildtype cells, transient PEI transfection
# Assay Summary: NanoBRET fold-change assay (HaloTag_CDK12 / NanoLuc_DDB1 in HEK293T)
# Assay type: cell-based
# Test Context: 10 μM compound, 10 minutes
Assay Metric: NanoBRET fold-change Activity Class

[
  {
    "Compound": "O=C(Cc1cccc2cnccc12)Nc1ncc(C(F)(F)F)s1",
    "Assay Metric": "NanoBRET fold-change Activity Class",
    "Observed Result": "C (2-3 fold increase)"
  },
  {
    "Compound": "Cc1ccc2c(ccn2CC(=O)Nc2ncc(C(F)(F)F)s2)c1",
    "Assay Metric": "NanoBRET fold-change Activity Class",
    "Observed Result": "C (2-3 fold increase)"
  }
]

* * *

# Tested Target: DDB1-CDK12/Cyclin K ternary complex (Homo sapiens, UniProt Q16531+Q9NYV4)
# Construct: expressed in transfected cells; host or cells: HEK293T wildtype cells, transient PEI transfection
# Assay Summary: NanoBRET EC50 assay (HaloTag_CDK12 / NanoLuc_DDB1 in HEK293T)
# Assay type: cell-based
# Test Context: 10-point titration from 20 μM, HEK293T
Assay Metric: NanoBRET EC50 Activity Class

Example entries and their recorded answers appear below.
[
  {
    "Molecule": "Cc1ccc2c(CC(=O)Nc3ncc(C4CC4)s3)coc2c1C",
    "NanoBRET EC50 Activity Class": "C (1.0 μM≤EC50<0.50 μM)"
  },
  {
    "Molecule": "Cc1ccc2c(CC(=O)Nc3cc(C(F)(F)F)[nH]n3)coc2c1C",
    "NanoBRET EC50 Activity Class": "B (0.50 μM≤EC50≤0.25 μM)"
  },
  {
    "Molecule": "O=C(Cc1cn2cc(F)ccc2n1)Nc1ncc(C(F)(F)F)s1",
    "NanoBRET EC50 Activity Class": "C (1.0 μM≤EC50<0.50 μM)"
  },
  {
    "Molecule": "O=C(Nc1ncc(C(F)(F)F)s1)C1CC(=O)N(c2cccc(Cl)c2)C1 (centres unmarked)",
    "NanoBRET EC50 Activity Class": "B (0.50 μM≤EC50≤0.25 μM)"
  },
  {
    "Molecule": "Cc1cc(N2CC(C(=O)Nc3ncc(C(F)(F)F)s3)CC2=O)ccc1F (centres unmarked)",
    "NanoBRET EC50 Activity Class": "B (0.50 μM≤EC50≤0.25 μM)"
  }
]

Give NanoBRET EC50 Activity Class for each of the items listed below.
1. Cc1ccc2c(CC(=O)Nc3cc(C(C)C)[nH]n3)coc2c1C
2. O=C(Cc1cnc2ccccc2c1)Nc1ncc(C(F)(F)F)s1
3. O=C(Cc1c[nH]c2cccnc12)Nc1ncc(C(F)(F)F)s1
4. O=C(Cc1c[nH]c2ncccc12)Nc1ncc(C(F)(F)F)s1
5. Cc1ccc2c(CC(=O)Nc3cc(Br)[nH]n3)coc2c1C
6. Cc1ccc2c(CC(=O)Nc3ccc(C(C)C)cn3)coc2c1C

["B (0.50 μM≤EC50≤0.25 μM)", "B (0.50 μM≤EC50≤0.25 μM)", "B (0.50 μM≤EC50≤0.25 μM)", "C (1.0 μM≤EC50<0.50 μM)", "B (0.50 μM≤EC50≤0.25 μM)", "C (1.0 μM≤EC50<0.50 μM)"]

* * *

# System: KBM7 cells (wild-type)
# Assay Summary: KBM7 CTG EC50 assay (UBE2M wild-type)
# Assay type: cell-based, human
# Test Context: ratio of anti-proliferative activity in KBM7 wild-type versus UBE2M knock-out cells (fold)
Kindly return Met if reported Ratio UBE2M WT to KO is no lower than 20; return Not met if it is lower.

Answered cases to consult:
[
  {
    "Compound": "Cc1ccc2c(CC(=O)Nc3cc(C(F)(F)F)[nH]n3)coc2c1C",
    "Tested Target": "KBM7 cells (wild-type)",
    "Answer Label": "Not met"
  },
  {
    "Compound": "O=C(Nc1ncc(C(F)(F)F)s1)C1CC(=O)N(c2cccc(Cl)c2)C1 (stereo not drawn)",
    "Tested Target": "KBM7 cells (wild-type)",
    "Answer Label": "Not met"
  },
  {
    "Compound": "Cc1cccn2c(CC(=O)Nc3ncc(C(F)(F)F)s3)cnc12",
    "Tested Target": "KBM7 cells (wild-type)",
    "Answer Label": "Met"
  }
]

Please check the record O=C(CCn1cnc2ccccc2c1=O)Nc1ncc(C(F)(F)F)s1 and state if its Ratio UBE2M WT to KO is at or above 20.
Not met

Quick check: does Cc1cc(NC(=O)Cc2coc3c(C)c(C)ccc23)n[nH]1 have Ratio UBE2M WT to KO greater than or equal to 20?
Met

Assess whether reported Ratio UBE2M WT to KO for Cc1ccc2c(CC(=O)Nc3cc(Br)[nH]n3)coc2c1C sits at 20 or higher.
Not met

Form field: Ratio UBE2M WT to KO at least 20? Entry: O=C(Cc1cn2cc(F)ccc2n1)Nc1ncc(C(F)(F)F)s1
Met

Please indicate if the recorded Ratio UBE2M WT to KO for O=C(Cc1cn2cc(Cl)cc(Cl)c2n1)Nc1ncc(C(F)(F)F)s1 meets or exceeds 20.
Met

Determine whether this compound has Ratio UBE2M WT to KO no lower than 20: Cc1ccc2c(CC(=O)Nc3cc(C(C)C)[nH]n3)coc2c1C
Not met

Test whether the compound O=C(Nc1ncc(C(F)(F)F)s1)C1CC(=O)N(c2ccc3c(c2)CCC3)C1 (stereo not drawn) records Ratio UBE2M WT to KO of 20 or higher.
Met

* * *

# Test system: CCNK
# Assay Summary: NanoLuc-CCNK degradation assay (HEK293T_Nluc_CCNK-tagged cells)
# Type: cell-based
# Test Context: 4 h incubation, HEK293T_Nluc_CCNK-tagged cells
Assay Metric: NanoLuc-CCNK degradation DC50 Activity Class

[
  {
    "Compound": "Cc1cccn2c(CC(=O)Nc3ncc(C(F)(F)F)s3)cnc12",
    "Tested Target": "CCNK",
    "Observed Result": "D (10 μM≤DC50<1.0 μM)"
  },
  {
    "Compound": "CC(C)c1ccc(NC(=O)Cc2cn3cc(F)ccc3n2)nc1",
    "Tested Target": "CCNK",
    "Observed Result": "B (0.50 μM≤DC50<0.10 μM)"
  },
  {
    "Compound": "O=C(Cc1cc2ccccc2o1)Nc1ncc(C(F)(F)F)s1",
    "Tested Target": "CCNK",
    "Observed Result": "D (10 μM≤DC50<1.0 μM)"
  },
  {
    "Compound": "Cc1ccc2c(CC(=O)Nc3ccc(Br)cn3)coc2c1C",
    "Tested Target": "CCNK",
    "Observed Result": "B (0.50 μM≤DC50<0.10 μM)"
  }
]
